measured.target: Sodium-dependent dopamine transporter (Homo sapiens)
assay.text: Inhibition of radioligand [125I]RTI-55 binding to human Dopamine transporter in clonal cells
result.type: pKd
The meaning of pKd here: minus log10 of the concentration in molar units.

Give the measured pKd for `Cc1ccc(CN(CCN2CCN(CCCc3ccccc3)CC2)c2ccccc2)cc1`
6.37

Give the measured pKd for `CN(CCc1ccccc1)CCN1CCN(CCCc2ccccc2)CC1`
6.26

Give the measured pKd for `Fc1ccc(/C=C/CN2CCN(CCOC(c3ccc(F)cc3)c3ccc(F)cc3)CC2)cc1`
8.41

Give the measured pKd for `COc1ccc(OC)c(/C=C/C(=O)N2CCN(CCOC(c3ccc(F)cc3)c3ccc(F)cc3)CC2)c1`
6.25

Give the measured pKd for `O=C(CCCN1CCN(CCCc2ccccc2)CC1)N(Cc1ccccc1)c1ccccc1`
7.55

Give the measured pKd for `COc1ccc(/C=C/C(=O)N2CCN(CCOC(c3ccc(F)cc3)c3ccc(F)cc3)CC2)cc1`
6.31

Give the measured pKd for `c1ccc(CCCN2CCN(CCN(Cc3ccccc3)c3ccccn3)CC2)cc1`
7.04

Give the measured pKd for `c1ccc(CCCN2CCN(CCCCN(Cc3ccccc3)c3ccccc3)CC2)cc1`
7.85

Give the measured pKd for `Fc1ccc(CCCN2CCN(CCOC(c3ccc(F)cc3)c3ccc(F)cc3)CC2)cc1`
8.25

Give the measured pKd for `COc1ccc(CN(CCCN2CCN(CCCc3ccccc3)CC2)c2ccccn2)cc1`
7.80

Give the measured pKd for `O=C(/C=C/c1ccccc1Cl)N1CCN(CCOC(c2ccc(F)cc2)c2ccc(F)cc2)CC1`
6.14

Give the measured pKd for `c1ccc(CCCN2CCN(CCCCCN(Cc3ccccc3)c3ccccc3)CC2)cc1`
7.49

Give the measured pKd for Fc1ccc(/C=C/CN2CCN(CCOC(c3ccccc3)c3ccc(F)cc3)CC2)cc1 (stereo not given)
7.64

Give the measured pKd for `COc1ccc(CN(CCN2CCN(CCCc3ccccc3)CC2)c2ccccn2)cc1`
6.66

Give the measured pKd for `COc1ccc(OC)c(/C=C/CN2CCN(CCOC(c3ccc(F)cc3)c3ccc(F)cc3)CC2)c1`
8.42

Give the measured pKd for Fc1ccc(C(OCCN2CCN(C/C=C/c3ccccc3)CC2)c2ccc(Cl)cc2Cl)cc1 (stereo not given)
7.18

Give the measured pKd for `O=C(/C=C/c1ccc(Cl)cc1)N1CCN(CCOC(c2ccc(F)cc2)c2ccc(F)cc2)CC1`
6.37

Give the measured pKd for Fc1ccc(C(OCCN2CCN(C/C=C/c3ccccc3)CC2)c2ccccc2)cc1 (stereo not given)
7.48

Give the measured pKd for `Cc1ccc(/C=C/C(=O)N2CCN(CCOC(c3ccc(F)cc3)c3ccc(F)cc3)CC2)cc1`
6.10

Give the measured pKd for `c1ccc(CCCN2CCN(CCCN(Cc3ccccc3)c3ccccn3)CC2)cc1`
6.97

* * *

measured.target: Sodium-dependent serotonin transporter (Homo sapiens, UniProt P31645)
Sequence (P31645 whole entry): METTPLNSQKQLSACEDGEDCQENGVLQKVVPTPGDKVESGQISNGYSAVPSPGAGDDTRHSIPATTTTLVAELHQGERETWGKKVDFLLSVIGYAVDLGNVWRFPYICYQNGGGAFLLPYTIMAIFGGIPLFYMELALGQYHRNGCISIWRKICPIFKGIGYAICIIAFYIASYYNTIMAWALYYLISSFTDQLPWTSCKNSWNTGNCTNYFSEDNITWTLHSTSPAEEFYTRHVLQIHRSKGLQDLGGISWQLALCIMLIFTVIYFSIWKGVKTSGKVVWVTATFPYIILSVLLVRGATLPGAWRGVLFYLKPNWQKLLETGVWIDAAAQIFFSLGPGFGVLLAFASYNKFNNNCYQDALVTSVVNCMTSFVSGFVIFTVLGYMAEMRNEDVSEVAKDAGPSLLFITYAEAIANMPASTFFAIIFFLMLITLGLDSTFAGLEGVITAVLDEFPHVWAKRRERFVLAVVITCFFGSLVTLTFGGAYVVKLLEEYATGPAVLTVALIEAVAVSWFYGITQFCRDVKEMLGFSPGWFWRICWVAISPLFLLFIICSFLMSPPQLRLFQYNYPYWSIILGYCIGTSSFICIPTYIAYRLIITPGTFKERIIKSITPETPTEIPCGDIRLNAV
assay.text: Inhibition of [125I]RTI-55 binding to human SERT in clonal cells
result.type: Kd (nM)
Provide only the numeric value, understood in nM.

Give the measured Kd for `COc1ccc(N(CCN2CCN(C/C=C/c3ccccc3)CC2)Cc2ccccc2)cc1`
282

Give the measured Kd for `Fc1ccc(/C=C/CN2CCN(CCOC(c3ccc(F)cc3)c3ccc(F)cc3)CC2)cc1`
229

Give the measured Kd for `Clc1ccc(C(OCCN2CCN(C/C=C/c3ccccc3)CC2)c2ccc(Cl)cc2)cc1`
331

Give the measured Kd for `Fc1ccc(CN(CCCN2CCN(CCCc3ccccc3)CC2)c2ccc(F)cc2)cc1`
331

Give the measured Kd for `COc1ccc(N(CCN2CCN(CCCc3ccccc3)CC2)Cc2ccccc2)cc1`
257

Give the measured Kd for `c1ccc(CCCN2CCN(CCCN(Cc3ccccc3)c3ccccn3)CC2)cc1`
2290

Give the measured Kd for `Fc1ccc(CN(CCCN2CCN(CCCc3ccccc3)CC2)c2ccccn2)cc1`
282

Give the measured Kd for COc1ccc(C(OCCN2CCN(C/C=C/c3ccccc3)CC2)c2ccccc2)cc1 (stereo not given)
692

Give the measured Kd for `CN(CCc1ccccc1)CCN1CCN(CCCc2ccccc2)CC1`
2630

Give the measured Kd for Fc1ccc(CCCN2CCN(CCOC(c3ccccc3)c3ccc(F)cc3)CC2)cc1 (stereo not given)
468

* * *

measured.target: Sodium-dependent serotonin transporter (Homo sapiens)
assay.text: Inhibition of [125I]RTI-55 binding to human SERT in clonal cells
result.type: Kd (nM)
Provide only the numeric value, understood in nM.

// output Kd; input `Fc1ccc(CCCN2CCN(CCOC(c3ccccc3)c3ccccc3)CC2)cc1` ; system Sodium-dependent serotonin transporter (Homo sapiens)
1820

// output Kd; input `COc1ccc(/C=C/C(=O)N2CCN(CCOC(c3ccc(F)cc3)c3ccc(F)cc3)CC2)cc1` ; system Sodium-dependent serotonin transporter (Homo sapiens)
141

// output Kd; input `COc1ccc(/C=C/CN2CCN(CCOC(c3ccc(F)cc3)c3ccc(F)cc3)CC2)cc1` ; system Sodium-dependent serotonin transporter (Homo sapiens)
372

// output Kd; input `Fc1ccc(C(OCCN2CCN(CCCc3ccc(Cl)cc3)CC2)c2ccc(F)cc2)cc1` ; system Sodium-dependent serotonin transporter (Homo sapiens)
155

// output Kd; input `O=C(/C=C/c1ccc(Cl)cc1)N1CCN(CCOC(c2ccc(F)cc2)c2ccc(F)cc2)CC1` ; system Sodium-dependent serotonin transporter (Homo sapiens)
72

// output Kd; input Cc1ccc(C(OCCN2CCN(C/C=C/c3ccccc3)CC2)c2ccccc2)cc1 (centres undefined) ; system Sodium-dependent serotonin transporter (Homo sapiens)
1120

// output Kd; input `Cc1ccc(/C=C/C(=O)N2CCN(CCOC(c3ccc(F)cc3)c3ccc(F)cc3)CC2)cc1` ; system Sodium-dependent serotonin transporter (Homo sapiens)
195

// output Kd; input `O=C(CCCCN1CCN(CCCc2ccccc2)CC1)N(Cc1ccccc1)c1ccccc1` ; system Sodium-dependent serotonin transporter (Homo sapiens)
204

// output Kd; input Fc1ccc(C(OCCN2CCN(C/C=C/c3ccccc3)CC2)c2ccc(Cl)cc2Cl)cc1 (centres undefined) ; system Sodium-dependent serotonin transporter (Homo sapiens)
525

* * *

measured.target: Sodium-dependent dopamine transporter (Homo sapiens, UniProt Q01959)
Sequence (Q01959 whole entry): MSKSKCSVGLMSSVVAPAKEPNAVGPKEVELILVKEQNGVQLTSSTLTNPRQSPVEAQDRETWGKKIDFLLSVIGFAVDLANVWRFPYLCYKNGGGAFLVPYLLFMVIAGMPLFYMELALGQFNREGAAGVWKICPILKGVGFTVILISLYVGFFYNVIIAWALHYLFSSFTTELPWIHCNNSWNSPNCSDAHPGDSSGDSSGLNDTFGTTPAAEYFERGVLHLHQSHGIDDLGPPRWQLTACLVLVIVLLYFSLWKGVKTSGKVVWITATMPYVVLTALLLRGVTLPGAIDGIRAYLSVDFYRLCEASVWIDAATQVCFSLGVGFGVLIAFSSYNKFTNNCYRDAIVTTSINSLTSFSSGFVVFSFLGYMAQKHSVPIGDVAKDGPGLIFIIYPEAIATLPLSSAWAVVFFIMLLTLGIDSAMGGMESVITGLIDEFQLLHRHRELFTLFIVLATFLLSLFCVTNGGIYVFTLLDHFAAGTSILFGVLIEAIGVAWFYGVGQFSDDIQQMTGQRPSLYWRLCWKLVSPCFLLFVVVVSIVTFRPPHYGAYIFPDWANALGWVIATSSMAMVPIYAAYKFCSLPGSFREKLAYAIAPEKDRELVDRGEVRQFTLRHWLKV
assay.text: Inhibition of radioligand [125I]RTI-55 binding to human Dopamine transporter in clonal cells
result.type: pKd
The meaning of pKd here: minus log10 of the concentration in molar units.

Give the measured pKd for `Fc1ccc(CCCN2CCN(CCOC(c3ccccc3)c3ccccc3)CC2)cc1`
7.40

Give the measured pKd for `Cc1ccc(/C=C/CN2CCN(CCOC(c3ccc(F)cc3)c3ccc(F)cc3)CC2)cc1`
7.32

Give the measured pKd for Fc1ccc(C(OCCN2CCN(C/C=C/c3ccccc3)CC2)c2ccc(Cl)cc2)cc1 (stereo not drawn)
8.41

Give the measured pKd for `O=C(CN1CCN(CCCc2ccccc2)CC1)N(Cc1ccccc1)c1ccccc1`
5.97

Give the measured pKd for `Fc1ccc(CN(CCCN2CCN(CCCc3ccccc3)CC2)c2ccccn2)cc1`
7.96

Give the measured pKd for `COc1ccc(N(CCN2CCN(CCCc3ccccc3)CC2)Cc2ccccc2)cc1`
6.04

Give the measured pKd for `COc1ccc(CN(CCN2CCN(C/C=C/c3ccccc3)CC2)c2ccccn2)cc1`
5.66

Give the measured pKd for Fc1ccc(C(OCCN2CCN(CCCc3ccccc3)CC2)c2ccccc2)cc1 (stereo not drawn)
7.70

Give the measured pKd for `Brc1ccc(CN(CCN2CCN(CCCc3ccccc3)CC2)c2ccc(Br)cc2)cc1`
6.01

Give the measured pKd for `O=C(CCCN1CCN(CCCc2ccccc2)CC1)N(Cc1ccccc1)c1ccccn1`
6.25

Give the measured pKd for `Clc1ccc(C(OCCN2CCN(C/C=C/c3ccccc3)CC2)c2ccc(Cl)cc2)cc1`
7.42

Give the measured pKd for COc1cccc(C(OCCN2CCN(C/C=C/c3ccccc3)CC2)c2cccc(Br)c2)c1 (stereo not drawn)
6.88

Give the measured pKd for `Fc1ccc(C(OCCN2CCN(CCCc3ccc(Cl)cc3)CC2)c2ccc(F)cc2)cc1`
8.09

Give the measured pKd for `Fc1ccc(C(OCCN2CCN(Cc3ccccc3)CC2)c2ccc(F)cc2)cc1`
7.01

Give the measured pKd for `COc1ccc(/C=C/CN2CCN(CCOC(c3ccc(F)cc3)c3ccc(F)cc3)CC2)cc1`
7.19

Give the measured pKd for `c1ccc(CCCN2CCN(CCCN(Cc3ccccc3)c3ccccc3)CC2)cc1`
8.00

Give the measured pKd for `c1ccc(CCCN2CCN(CCN(Cc3ccccc3)c3ccccc3)CC2)cc1`
6.66

Give the measured pKd for `Fc1ccc(/C=C/CN2CCN(CCOC(c3ccccc3)c3ccccc3)CC2)cc1`
7.80
